Target: T1, AAV5
T1 construct: also called adeno-associated virus serotype 5
Experiment: SPR, AAV on CM5 chip;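 further: surface plasmon resonance with AAV amine-coupled to the chip as ligand, nanobodies injected as analyte over a concentration series, rate constants and affinity fitted from binding curves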
PROPERTY: Kd (nM)

BINDER	TEST RESULT
A4-034 (VHH) VHH: VQLQESGGGLVQPGGSLRLSCAASGRGFSINTMGWYRQAPGKQRELVAAVTRGGTTNYADSVKGRFTISRDNAKNTVYLQMNSLRPEDTAVYYCHVDEVRQSSWTTSNLWGQGTQVTVSS	12.2
A4-017 (VHH) VHH: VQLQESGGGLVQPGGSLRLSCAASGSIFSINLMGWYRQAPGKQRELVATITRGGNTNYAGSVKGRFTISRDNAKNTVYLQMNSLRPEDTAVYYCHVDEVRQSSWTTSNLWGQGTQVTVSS	542
A4-007 (VHH) VHH: VQLQESGGGLVQAGGSLRLSCAASGRHFSINTMGWYRQAPGKQRELVAAVTRGGSTNYAGSVKGRFTISRDNAKNTVYLQMNSLRPEDTAVYYCHIDEVRQSSWTTSNIWGQGTQVTVSS	1260
A4-043 (VHH) VHH: VQLQESGGGLVQPGGSLRLSCAASGRAFSINTMGWYRQAPGKQRELVATVTRDGSTNYAGSVKGRFTISRDNAKNTVYLQMNSLRPEDTAVYYCHVDEVRQSSWTTSNLWGQGTQVTVSS	7.73
A4-049 (VHH) VHH: VQLQESGGGLVQPGGSLRLSCAASGSMFSINTMGWYRQAPGKQRELVAAVTRGGNTNYAGSVKGRFTISRDNAKNTVYLQMNSLRPEDTAVYYCHVDEVRQSSWTTSNLWGQGTQVTVSS	9.61
A4-045 (VHH) VHH: VQLQESGGGLVQPGGSLRLSCAASGSSFSINTMGWYRQAPGKQRELVAAVTRGGVTNYADSVKGRFTISRDNAKNTVYLQMNSLRPEDTAVYYCHVDEVRQSSWTTSNLWGQGTQVTVSS	41.3
A4-020 (VHH) VHH: VQLQESGGGLVQAGGSLRLSCAASGSTFSINTMGWYRQAPGKQRELVATITRGGNTNYADSVKGRFTISRDNAKNTVYLQMNSLRPEDTAVYYCHVDEVRQSSWTTSNLWGQGTQVTVSS	169
A4-044 (VHH) VHH: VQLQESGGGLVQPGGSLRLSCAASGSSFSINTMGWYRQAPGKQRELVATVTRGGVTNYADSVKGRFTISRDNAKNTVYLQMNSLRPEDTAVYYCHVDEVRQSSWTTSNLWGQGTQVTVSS	7.47
